tested on: Bacillus subtilis; experiment: Antimicrobial activity against Bacillus subtilis; format: functional
Would you mind telling me the reported MIC of each entry?
One number for each entry, in µg/mL.

Worked examples, 5 molecules total:
{"MOLECULE": "O=C(CCCCCN1c2ccccc2Sc2ccccc21)NCc1ccc(CN(Cc2ccccn2)Cc2ccccn2)cc1", "MIC (µg/mL)": 7.8}
{"MOLECULE": "O=C(CCCCCN1c2ccccc2Sc2ccccc21)NCc1ccc(CN2CCOCCOCCOCCOCC2)cc1", "MIC (µg/mL)": 60}
{"MOLECULE": "O=C(CCN1c2ccccc2Sc2ccc(C(F)(F)F)cc21)NCc1ccc(CN(Cc2ccccn2)Cc2ccccn2)cc1", "MIC (µg/mL)": 16}
{"MOLECULE": "O=C(CCN1c2ccccc2Sc2ccccc21)NCc1ccc(CN(Cc2ccccn2)Cc2ccccn2)cc1", "MIC (µg/mL)": 30}
{"MOLECULE": "CC1(C)S[C@@H]2[C@H](NC(=O)[C@H](N)c3ccccc3)C(=O)N2[C@H]1C(=O)O [AMPICILLIN]", "MIC (µg/mL)": 25}

Now look at this entry.
Report MIC for O=C(CCCCCN1c2ccccc2Sc2ccccc21)OCc1ccc(-c2cc(-c3ccccn3)nc(-c3ccccn3)c2)cc1 please.
500
